Taken from the RNAGym collection of RNA variant scans (doi:10.7554/elife.80360).

B1: Hairpin Ribozyme (parent)
chain: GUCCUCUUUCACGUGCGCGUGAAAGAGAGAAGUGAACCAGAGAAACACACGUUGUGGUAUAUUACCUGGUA

Variants of: B1
Assay: self-cleavage, relative activity (ratio to wild type); higher = more cleavage; co-transcriptional
Below, each entry is listed with its recorded self-cleavage.
// response body must contain only the number

Below, each entry is followed by its recorded self-cleavage result.
INSERT INTO results (variant_key, test_value) VALUES
  ('C12U G69U', 0.153),
  ('C16A G51U', 0.861),
  ('G25A U52A', 0.643),
  ('A43U C46G', 0.0741),
  ('G27C U53C', 0.318),
  ('A49U U63G', 0.111),
  ('G21U A36U', 0.661),
  ('G32C A41U', 0.101);

Give the measured self-cleavage of U7C U67C .
0.215

Next entry: C6U A49U
0.159

Next entry: C16A A23C
0.983

Next entry: G54C U70G
0.155

Next entry: A28G A36C
0.778

Next entry: U52G G56U
0.131

Next entry: U2G U5C
0.271

Next entry: U62C U67A
0.166

Next entry: A11U A61G
0.176

Next entry: G51A U70A
1.09

Next entry: U5A C18U
0.554

Next entry: A45C G57U
0.249

Next entry: C12A C18U
0.834

Next entry: C50A U60C
0.419

Next entry: `A45C`
0.154

Next entry: G42A C46A
0.152

Next entry: G42A A61G
0.201

Next entry: G40U U52C
0.333
